- target_or_system: human γδ TCR (Vγ9Vδ2) on human Vδ2+ γδ T cells (human) (UniProt A0JD36)
- test_protocol: flow cytometry on expanded human Vδ2+ γδ T cells, nonlinear fit
pKd: −log10 of the molar value.
# binarize pKd: threshold 7 inclusive, high side yes, low side no

# example entries with known answers
binder	group_label
hu1D7v36 VHH-hIgG1 Fc-NNT (monomeric) (VHH) VHH: EVQLLESGGGEVQPGGSLRLSCVASRGKISQYRMGWYRQAPGKELEWVAHISNTGDAAEYVDSVKGRFTISRDSTKNAVYLQMSSLRAEDTAVYYCNSVEDILAWGQGTLVTVKP	no
hu1D7v25 VHH-hIgG1 Fc-NNT (monomeric) (VHH) VHH: EVQLLESGGGEVQPGGSLRLSCVASRGKISQYRMGWYRQAPGKGLEWVAHISNTGDAAEYVDSVKGRFTISRDSTKNAVYLQMSSLRAEDTAVYKCASVEDILAWGQGTLVTVKP	no
hu1D7v85 VHH-hIgG1 Fc-NNT (monomeric) (VHH) VHH: EVQLLESGGGEVQPGGSLRLSCVASRGKISQYRMGWYRQAPGKERELVAHISNTGDAAEYVSGVKDRFTISRDSTKNALYLQMSSLRAEDTAVYKCNSVEDILAWGQGTLVTVRP	no
hu1D7v32 VHH-hIgG1 Fc-NNT (monomeric) (VHH) VHH: EVQLLESGGGEVQPGGSLRLSCVASRGKISQYRMGWYRQAPGKELEWVAHISNTGDAAEYVESVKGRFTISRDSTKNAVYLQMSSLRAEDTAVYKCNSVEDILAWGQGTLVTVKP	yes

Please turn your attention to the following entry.
Exam item: decide whether the reported pKd for hu1D7v15 VHH-hIgG1 Fc-NNT (monomeric) (VHH) VHH: EVQLLESGGGEVQPGGSLRLSCVASRGKISQYRMGWYRQAPGKGLEWVAHISNTGDSAEYVDSVKGRFTISRDSTKNAVYLQMSSLRAEDTAVYKCNSVEDILAWGQGTLVTVKP is at least 7.
yes
